assay: Selectivity index, ratio of CC50 for cytotoxicty against human Huh-7 cells to EC50 for antiviral activity against HCV infected in human Huh-7 cells assessed as reduction in viral infection; type: toxicity, cell-based; conditions: read-out: Ratio CC50/EC50
Measured property: selectivity ratio

O=C(CC(=O)c1nnc[nH]1)c1ccc(OCc2ccc(F)cc2)cc1: > 128

* * *

assay: Cytotoxicity against human MT4 cells assessed as reduction in cell viability; assay type: toxicity, cell-based
Measured property: CC50

Cc1ccnc2c1NC(=O)c1cccnc1N2C1CC1 [NEVIRAPINE]: > 15 µM

* * *

system: Human immunodeficiency virus 1; test: Antiviral activity against wild type HIV-1 infected in human HeLa cells assessed as reduction in viral growth incubated for 48 hrs by bright-glo luciferase assay; type: functional, organism-based; settings: Human immunodeficiency virus 1, HeLa
pEC50: −log10 of the molar value.
Measured property: pEC50

NS(=O)(=O)c1ccc(NC(=O)CSc2nnc(Br)n2-c2ccc(C3CC3)c3ccccc23)c(Cl)c1: 9.85

* * *

target: Hepatitis C virus NS5B RNA-dependent RNA polymerase (Hepatitis C virus, UniProt Q8JXU8)
Sequence (Q8JXU8 whole entry): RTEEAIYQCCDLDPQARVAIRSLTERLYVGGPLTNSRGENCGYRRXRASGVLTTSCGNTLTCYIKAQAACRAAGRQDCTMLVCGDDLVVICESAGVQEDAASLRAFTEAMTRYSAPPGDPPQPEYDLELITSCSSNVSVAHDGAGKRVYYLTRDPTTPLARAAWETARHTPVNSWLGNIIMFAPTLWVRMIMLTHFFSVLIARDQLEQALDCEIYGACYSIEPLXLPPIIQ
Could you mark each record yes if its IC50 falls strictly under 100 nM, and no if it equals or exceeds it?

C=CCn1c(CC2(CC)OCCc3c2[nH]c2c(CC)cccc32)n[nH]c1=S (stereo unspecified): no
CCc1cc(CCC2(C3CCCC3)CC(O)=C(Cc3nc4nc(C)cc(C)n4n3)C(=O)O2)cc(CC)n1 (stereo unspecified): yes
CCc1cc(CC[C@]2(C3CCCC3)CC(O)=C(Cc3nc4nc(C)cc(C)n4n3)C(=O)O2)cc(CC)n1: yes
CCc1cccc2c3c([nH]c12)C(CC)(Cc1n[nH]c(=S)n1CC)OCC3 (stereo unspecified): no
CCc1cc(CC[C@@]2(C3CCCC3)CC(O)=C(Cc3nc4nc(C)cc(C)n4n3)C(=O)O2)cc(CC)n1: yes
Cc1cc(C)n2nc(CC3=C(O)CC(CCc4ccc(C(C)(C)O)c(F)c4)(C4CCCC4)OC3=O)nc2n1 (stereo unspecified): no

* * *

system: Human immunodeficiency virus 1; experiment: Antiviral activity against HIV-1 harboring K103 N/Y181C double mutant infected in human HeLa cells assessed as reduction in viral growth; type: functional, organism-based; settings: Human immunodeficiency virus 1, HeLa
pEC50: −log10 of the molar value.
Measured property: pEC50

Cc1ccc(NC(=O)CSc2nnc(C)n2-c2ccccc2)c(Br)c1: 5.89

* * *

system: Influenza A virus; test: Antiviral activity against Influenza A virus H9N2 infected in MDCK cells assessed as inhibition of viral replication; assay type: functional, organism-based
Measured property: EC50 (nM)

CCc1c(C)nc2nnc(-c3ccccc3Cl)n2c1O: 90

* * *

test system: Human immunodeficiency virus 1; experiment: Antiviral activity against HIV-1 harboring reverse transcriptase E138K mutant infected in human MT4 cells assessed as reduction in virus-induced cytopathic effect; format: functional, organism-based; details: Human immunodeficiency virus 1, MT4
Measured property: EC50 (nM)

CC(C)Nc1cccnc1N1CCN(C(=O)c2cc3cc(NS(C)(=O)=O)ccc3[nH]2)CC1 [DELAVIRDINE]: 51

* * *

Entries and their measured selectivity ratio follow.
test: Selectivity index, ratio of CC50 for cytotoxicity against human MT4 cells assessed as reduction in cell viability to EC50 for antiviral activity against wild type HIV-1 IIIB infected in human MT4 cells; type: toxicity, cell-based; settings: read-out: Ratio CC50/EC50
Measured property: selectivity ratio

Cc1cc(C)c(Oc2cc(Nc3ccc(C#N)cc3)ncc2C(=O)NCc2cn(CC(=O)N3CCCC3)nn2)c(C)c1: 2100
Cc1cc(C)c(Oc2cc(Nc3ccc(C#N)cc3)ncc2C(=O)NCc2cn(CCC#N)nn2)c(C)c1: 2040
CC(C)Nc1cccnc1N1CCN(C(=O)c2cc3cc(NS(C)(=O)=O)ccc3[nH]2)CC1: 733
Cc1cc(C)c(Oc2cc(Nc3ccc(C#N)cc3)ncc2C(=O)NCc2cn(CC(=O)N3CCOCC3)nn2)c(C)c1: 9280
